read-out: Interleukin 6 (IL6), IL6 (gene 3569); assay: LTEA_HepaRG_IL6: Life Technologies and Expression Analysis (LTEA) Assay for Interleukin 6 (IL6) using HepaRG (AID 2283509); details: mRNA level, 48 h; actives raise or lower the signal
Calls of active or inactive are those of the source. How the source made its calls: active means hit-call score of the fitted dose curve at least 0.9, where 1 is the maximum; inactive means score below 0.9.
observable: outcome

Quick one: outcome for `CCOC(=O)COc1cc(-n2ncc(C(F)(F)F)c(C)c2=O)c(F)cc1Cl` ?
inactive

Another compound to look at: CCOC(=O)C(C)Oc1ccc(Oc2cnc3cc(Cl)ccc3n2)cc1 (stereo not drawn)
inactive

Another compound to look at: `OB(O)O`
inactive

====

read-out: MYC, MYC (gene 4609); assay: LTEA_HepaRG_MYC: Life Technologies and Expression Analysis (LTEA) Assay for MYC using HepaRG (AID 2283518); conditions: mRNA level, 48 h; actives raise or lower the signal
Active and inactive are the calls of the source. How the source made its calls: active means hit-call score of the fitted dose curve at least 0.9, where 1 is the maximum; inactive means score below 0.9.
The reply should name one outcome from TRUE = active, FALSE = inactive

Please let me know the test result on file for `CCCCOCCOCCOCc1cc2c(cc1CCC)OCO2` .
FALSE

Another molecule to look at: `OB(O)O`
FALSE

Could you now look at the following molecule, please?
Please let me know the test result on file for `CC(C)CCCCCCc1ccc(O)cc1` .
FALSE
